- TARGET SYSTEM: Mu-type opioid receptor (Mus musculus, UniProt P42866)
pKi: −log10 of the molar value.
Decision: pKi >= 9 yields Condition met, all other cases yield Condition not met.

{"columns": ["LINE NOTATION", "CAT"],
 "data": [
  ["O=C(N[C@H]1CC[C@@]2(O)[C@H]3Cc4ccc(O)c5c4[C@@]2(CCN3CC2CC2)[C@H]1O5)c1cccc2cc(Br)[nH]c12", "Condition met"],
  ["O=C(N[C@@H]1CC[C@@]2(O)[C@H]3Cc4ccc(O)c5c4[C@@]2(CCN3CC2CC2)[C@H]1O5)c1cccc2c(C3CCCCC3)c[nH]c12", "Condition not met"],
  ["N#Cc1c[nH]c2c(C(=O)N[C@@H]3CC[C@@]4(O)[C@H]5Cc6ccc(O)c7c6[C@@]4(CCN5CC4CC4)[C@H]3O7)cccc12", "Condition met"],
  ["CC(C)c1c[nH]c2c(C(=O)N[C@H]3CC[C@@]4(O)[C@H]5Cc6ccc(O)c7c6[C@@]4(CCN5CC4CC4)[C@H]3O7)cccc12", "Condition not met"]
]}

With those in mind, consider the next compound.
// query Form field: pKi at least 9? Entry: O=Cc1c[nH]c2c(C(=O)N[C@H]3CC[C@@]4(O)[C@H]5Cc6ccc(O)c7c6[C@@]4(CCN5CC4CC4)[C@H]3O7)cccc12
// result Condition met

###

Consider molecules characterized by their pKi with Mu-type opioid receptor (Mus musculus).
Quick note: pKi values are minus log10 of concentrations in mol/L.

Observe how each entry below is paired with its result.
{"columns": ["LINE NOTATION", "pKi"],
 "data": [
  ["CC(=O)Nc1c[nH]c2c(C(=O)N[C@H]3CC[C@@]4(O)[C@H]5Cc6ccc(O)c7c6[C@@]4(CCN5CC4CC4)[C@H]3O7)cccc12", 9.64],
  ["O=C(N[C@@H]1CC[C@@]2(O)[C@H]3Cc4ccc(O)c5c4[C@@]2(CCN3CC2CC2)[C@H]1O5)c1cccc2c([N+](=O)[O-])c[nH]c12", 9.27]
]}

Below: the item to evaluate.
// query // output pKi; input O=C(N[C@H]1CC[C@@]2(O)[C@H]3Cc4ccc(O)c5c4[C@@]2(CCN3CC2CC2)[C@H]1O5)c1cccc2cc(Cl)[nH]c12 ; system Mu-type opioid receptor (Mus musculus)
// result 9.19

###

- TARGET SYSTEM: Kappa-type opioid receptor (Mus musculus, UniProt P33534)
READOUT TYPE: log10 of Ki (log10 of the value in nM)
Note: values are log10 of Ki expressed in nM.

// query // output log10 of Ki; input O=C(N[C@@H]1CC[C@@]2(O)[C@H]3Cc4ccc(O)c5c4[C@@]2(CCN3CC2CC2)[C@H]1O5)c1cccc2c(Br)c[nH]c12 ; system Kappa-type opioid receptor (Mus musculus, UniProt P33534)
// result 0.03

// query // output log10 of Ki; input O=C(N[C@H]1CC[C@@]2(O)[C@H]3Cc4ccc(O)c5c4[C@@]2(CCN3CC2CC2)[C@H]1O5)c1cccc2cc(Cl)[nH]c12 ; system Kappa-type opioid receptor (Mus musculus, UniProt P33534)
// result 0.44

// query // output log10 of Ki; input N#Cc1cc2cccc(C(=O)N[C@@H]3CC[C@@]4(O)[C@H]5Cc6ccc(O)c7c6[C@@]4(CCN5CC4CC4)[C@H]3O7)c2[nH]1 ; system Kappa-type opioid receptor (Mus musculus, UniProt P33534)
// result 0.22

// query // output log10 of Ki; input O=C(N[C@@H]1CC[C@@]2(O)[C@H]3Cc4ccc(O)c5c4[C@@]2(CCN3CC2CC2)[C@H]1O5)c1cccc2c(-c3ccccc3)c[nH]c12 ; system Kappa-type opioid receptor (Mus musculus, UniProt P33534)
// result 1.42

// query // output log10 of Ki; input Cc1c[nH]c2c(C(=O)N[C@@H]3CC[C@@]4(O)[C@H]5Cc6ccc(O)c7c6[C@@]4(CCN5CC4CC4)[C@H]3O7)cccc12 ; system Kappa-type opioid receptor (Mus musculus, UniProt P33534)
// result 0.00

// query // output log10 of Ki; input O=C(N[C@H]1CC[C@@]2(O)[C@H]3Cc4ccc(O)c5c4[C@@]2(CCN3CC2CC2)[C@H]1O5)c1cccc2c(Cl)c[nH]c12 ; system Kappa-type opioid receptor (Mus musculus, UniProt P33534)
// result 0.78
